system: Epidermal growth factor receptor (Homo sapiens), P00533 [L858R]; details: at 0.1 µM
Sequence (P00533 whole entry L858R): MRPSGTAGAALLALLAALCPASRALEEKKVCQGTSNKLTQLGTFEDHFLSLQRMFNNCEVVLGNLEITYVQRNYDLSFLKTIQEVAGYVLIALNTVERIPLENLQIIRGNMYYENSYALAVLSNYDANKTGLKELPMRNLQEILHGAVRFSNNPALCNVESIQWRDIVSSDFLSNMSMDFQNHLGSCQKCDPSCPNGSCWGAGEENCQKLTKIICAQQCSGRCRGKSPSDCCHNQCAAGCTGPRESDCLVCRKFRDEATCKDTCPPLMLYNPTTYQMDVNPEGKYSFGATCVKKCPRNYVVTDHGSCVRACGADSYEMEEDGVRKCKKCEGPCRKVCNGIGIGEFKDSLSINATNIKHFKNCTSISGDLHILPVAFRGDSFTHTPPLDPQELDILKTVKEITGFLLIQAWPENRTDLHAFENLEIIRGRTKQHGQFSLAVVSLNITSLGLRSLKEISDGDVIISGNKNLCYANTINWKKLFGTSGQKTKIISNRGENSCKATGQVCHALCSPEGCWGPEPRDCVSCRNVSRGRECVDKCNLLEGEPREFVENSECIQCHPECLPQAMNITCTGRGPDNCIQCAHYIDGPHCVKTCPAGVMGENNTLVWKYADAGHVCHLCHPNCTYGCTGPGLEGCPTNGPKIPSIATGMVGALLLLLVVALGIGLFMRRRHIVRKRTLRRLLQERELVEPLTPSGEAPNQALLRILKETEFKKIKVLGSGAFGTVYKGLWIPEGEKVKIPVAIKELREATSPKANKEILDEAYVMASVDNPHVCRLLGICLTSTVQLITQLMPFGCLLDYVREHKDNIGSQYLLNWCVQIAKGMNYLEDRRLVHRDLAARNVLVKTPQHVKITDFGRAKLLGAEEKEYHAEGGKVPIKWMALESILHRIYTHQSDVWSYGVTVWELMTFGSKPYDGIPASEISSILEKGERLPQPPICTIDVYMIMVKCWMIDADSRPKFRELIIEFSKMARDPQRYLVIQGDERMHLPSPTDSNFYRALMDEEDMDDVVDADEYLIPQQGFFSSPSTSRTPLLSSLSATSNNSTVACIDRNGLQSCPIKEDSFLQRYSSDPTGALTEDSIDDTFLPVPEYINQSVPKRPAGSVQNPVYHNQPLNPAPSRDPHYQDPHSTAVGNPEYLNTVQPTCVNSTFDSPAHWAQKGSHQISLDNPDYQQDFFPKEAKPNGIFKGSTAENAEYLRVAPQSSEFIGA

chem.smiles | experimental.target | inhibition [%]
O=C(Nc1n[nH]c2nc(-c3ccc(O)cc3)c(Br)cc12)C1CC1 | Epidermal growth factor receptor (Homo sapiens), P00533 [L858R] | 5.48
COc1cc2ncn(-c3cc(OCc4cccs4)c(C(N)=O)s3)c2cc1OC | Epidermal growth factor receptor (Homo sapiens), P00533 [L858R] | 4.34
Fc1ccc(-c2ncn(C3CCNCC3)c2-c2ccnc(Oc3ccc(F)c(F)c3)n2)cc1 | Epidermal growth factor receptor (Homo sapiens), P00533 [L858R] | 1.05
O=C1Nc2ccccc2/C1=C/Nc1ccc(-n2cncn2)cc1 | Epidermal growth factor receptor (Homo sapiens), P00533 [L858R] | 2.81
COc1cc(C)c(N(C)C(=O)CN(C)C)cc1Nc1nc(Nc2cccc(F)c2C(N)=O)c2cc[nH]c2n1 | Epidermal growth factor receptor (Homo sapiens), P00533 [L858R] | -1.11
NS(=O)(=O)c1ccc(N/N=C2\C(=O)Nc3ccc(C(=O)NCCCn4ccnc4)cc32)cc1 | Epidermal growth factor receptor (Homo sapiens), P00533 [L858R] | 0.2
NC(=O)Cc1ccccc1Oc1nccc(-c2c(-c3ccc(F)cc3)ncn2C2CCNCC2)n1 | Epidermal growth factor receptor (Homo sapiens), P00533 [L858R] | 2.34
O=C(NCC1CC1)c1ccc(-c2cccc(C(=O)NC3CC3)c2)cc1 | Epidermal growth factor receptor (Homo sapiens), P00533 [L858R] | 2.42
COc1cc(Nc2ncc(-c3ccccc3)o2)cc(OC)c1OC | Epidermal growth factor receptor (Homo sapiens), P00533 [L858R] | -1.09

Data credit: ChEMBL document CHEMBL1961873
